Measurement target: THERMINATOR™ DNA polymerase (Thermococcus sp., UniProt Q56366, A485L/D141A/E143A)
Construct: purchased New England Biolabs
Sequence (Q56366 whole entry D141A/E143A/A485L): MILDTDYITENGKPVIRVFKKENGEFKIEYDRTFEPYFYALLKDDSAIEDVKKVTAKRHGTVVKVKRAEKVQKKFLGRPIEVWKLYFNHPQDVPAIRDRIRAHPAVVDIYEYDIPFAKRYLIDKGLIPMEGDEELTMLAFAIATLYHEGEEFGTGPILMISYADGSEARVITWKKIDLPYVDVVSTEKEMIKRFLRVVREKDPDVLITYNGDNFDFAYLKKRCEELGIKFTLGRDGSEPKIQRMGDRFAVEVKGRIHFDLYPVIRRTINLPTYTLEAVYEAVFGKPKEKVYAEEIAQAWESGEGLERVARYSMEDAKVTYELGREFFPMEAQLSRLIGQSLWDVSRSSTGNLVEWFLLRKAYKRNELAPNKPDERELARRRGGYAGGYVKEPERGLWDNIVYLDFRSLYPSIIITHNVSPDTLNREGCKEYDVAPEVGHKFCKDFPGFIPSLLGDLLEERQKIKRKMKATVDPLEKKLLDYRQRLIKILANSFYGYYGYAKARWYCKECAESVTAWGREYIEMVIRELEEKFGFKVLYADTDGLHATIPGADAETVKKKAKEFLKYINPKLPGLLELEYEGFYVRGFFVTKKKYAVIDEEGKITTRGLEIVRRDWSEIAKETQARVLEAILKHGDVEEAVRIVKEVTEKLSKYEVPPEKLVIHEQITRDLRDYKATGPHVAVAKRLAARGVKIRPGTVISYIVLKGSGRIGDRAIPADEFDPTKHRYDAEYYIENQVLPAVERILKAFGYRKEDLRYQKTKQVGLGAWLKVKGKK
Assay procedure: biochemical
Set-up: species or system Thermococcus species 9° N-7
Condition description: Adj IC50 Conc (nM), adjusted IC50 used to set the concentrations of the termination assay
Quantity measured: IC50 (nM)

Compound | Scale unit | Measured number
CC(C)(C)c1ccccc1COCc1cn([C@H]2C[C@H](O)[C@@H](COP(=O)(O)OP(=O)(O)OP(=O)(O)O)O2)c(=O)[nH]c1=O [6p024] | nM | 0.7
CC(C)C(OCc1cn([C@H]2C[C@H](O)[C@@H](COP(=O)(O)OP(=O)(O)OP(=O)(O)O)O2)c(=O)[nH]c1=O)c1ccccc1[N+](=O)[O-] (mixture of isomers) [2p148] | nM | 2.1
O=c1[nH]c(=O)n([C@H]2C[C@H](O)[C@@H](COP(=O)(O)OP(=O)(O)OP(=O)(O)O)O2)cc1COCc1ccccc1-c1ccccc1 [6p010] | nM | 1.4
O=c1[nH]c(=O)n([C@H]2C[C@H](O)[C@@H](COP(=O)(O)OP(=O)(O)OP(=O)(O)O)O2)cc1COCc1ccccc1 [5p145] | nM | 1.4
CC(C)c1ccccc1COCc1cn([C@H]2C[C@H](O)[C@@H](COP(=O)(O)OP(=O)(O)OP(=O)(O)O)O2)c(=O)[nH]c1=O [5p149] | nM | 1.4
Cc1cccc(C)c1COCc1cn([C@H]2C[C@H](O)[C@@H](COP(=O)(O)OP(=O)(O)OP(=O)(O)O)O2)c(=O)[nH]c1=O [6p015] | nM | 1.4
CC(C)C(OCc1cn([C@H]2C[C@H](O)[C@@H](COP(=O)(O)OP(=O)(O)OP(=O)(O)O)O2)c(=O)[nH]c1=O)c1ccccc1 (mixture of isomers) [5p111, 5-(α-isopropyl-benzyloxy)methyl-2′-dUTP] | nM | 0.8
Cc1ccccc1COCc1cn([C@H]2C[C@H](O)[C@@H](COP(=O)(O)OP(=O)(O)OP(=O)(O)O)O2)c(=O)[nH]c1=O [5p147] | nM | 1.4

* * *

Measurement target: THERMINATOR™ DNA polymerase (Thermococcus sp., UniProt Q56366, A485L/D141A/E143A)
Construct: purchased New England Biolabs
Assay procedure: polymerase end point assay, mismatch discrimination (mismatched template bases)
Type: biochemical, Thermococcus species 9° N-7
Condition description: template base "T"
Experimental: Natural and modified nucleotides were tested for incorporation efficiency using the “polymerase end point assay” (Wu et al., 2007, which is incorporated herein by reference). […] Incorporation efficiency is measured by determining the concentration at which the compound incorporates on half the primer-template complexes (IC50). Titrations of increasing compound concentration were performed to generate curves from which the IC50 can be determined. […]

Compound | Mismatch/match ratio (10^2)
Nc1nc2c(c(COCc3ccccc3[N+](=O)[O-])cn2[C@H]2C[C@H](O)[C@@H](COP(=O)(O)OP(=O)(O)OP(=O)(O)O)O2)c(=O)[nH]1 [5p107] | 0.1 10^2
CC(C)C(OCc1cn([C@H]2C[C@H](O)[C@@H](COP(=O)(O)OP(=O)(O)OP(=O)(O)O)O2)c2nc(N)[nH]c(=O)c12)c1ccccc1[N+](=O)[O-] (single isomer, unassigned) [5p143-ds1] | 5 10^2
CC(C)C(OCc1cn([C@H]2C[C@H](O)[C@@H](COP(=O)(O)OP(=O)(O)OP(=O)(O)O)O2)c2nc(N)[nH]c(=O)c12)c1ccccc1[N+](=O)[O-] (single isomer, unassigned) [5p143-ds2] | 2.5 10^2
Nc1nc2c(ncn2[C@H]2C[C@H](O)[C@@H](COP(=O)(O)OP(=O)(O)OP(=O)(O)O)O2)c(=O)[nH]1 [dGTP, reference compound] | 0.1 10^2
